# Test system: M14 melanoma
# Procedure details: NCI tumour cell line growth inhibition, 48 h
Quick list: TGI per entry.
Reported metric: TGI

>  <Compound>
COc1ccc2nc3cc(Cl)ccc3c(Nc3ccc(O)c(CN4CCN(C)CC4)c3)c2c1

>  <Reported metric>
TGI

>  <Reported measurement>
3.53 µM

$$$$
>  <Compound>
CN(C)C(=S)/N=C1\SC(=Nc2ccccc2)C(=Nc2ccccc2)N1c1ccc([N+](=O)[O-])cc1

>  <Reported metric>
TGI

>  <Reported measurement>
> 100 µM

$$$$
>  <Compound>
COC(=O)C1CC(C(=O)OC)c2nc3cc([N+](=O)[O-])ccc3nc21 (centres undefined)

>  <Reported metric>
TGI

>  <Reported measurement>
> 100 µM

$$$$
>  <Compound>
COc1cc(Nc2c(C#N)[n+]([O-])c3ccccc3[n+]2[O-])cc(OC)c1OC

>  <Reported metric>
TGI

>  <Reported measurement>
36 µM

$$$$
>  <Compound>
O=C(CNC(=O)c1ccccc1)Oc1c(Cl)c(Cl)c(Cl)c(Cl)c1Cl

>  <Reported metric>
TGI

>  <Reported measurement>
> 100 µM

$$$$
>  <Compound>
CCCCCCCCCCOC1C(C(O)CNCCCN(C)C)OC2OC3(CCCCC3)OC21 (centres undefined)

>  <Reported metric>
TGI

>  <Reported measurement>
3.55 µM

$$$$
>  <Compound>
CC=C(CBr)CCC(Br)C(C)(C)Cl (mixture of isomers)

>  <Reported metric>
TGI

>  <Reported measurement>
> 10 µM

$$$$
>  <Compound>
N#CCCN(c1ccc(/C=N/c2nc(-c3ccccc3)cs2)cc1)S(=O)(=O)c1ccccc1

>  <Reported metric>
TGI

>  <Reported measurement>
> 100 µM

$$$$
>  <Compound>
CCOC(=O)c1nnsc1NC(=O)NCCCCCCn1c(=O)n(CCCCCCNC(=O)Nc2snnc2C(=O)OCC)c(=O)n(CCCCCCNC(=O)Nc2snnc2C(=O)OCC)c1=O

>  <Reported metric>
TGI

>  <Reported measurement>
> 100 µM

$$$$

----------
Quick list: log10(TGI) per entry.
# System: SR leukemia
# Procedure details: NCI tumour cell line growth inhibition, 48 h
Reported metric: log10(TGI) (log10 of the value in µM)

>  <Compound>
S=C(S)N1CCOCC1

>  <log10(TGI)>
1.17

$$$$
>  <Compound>
CC(C)=Cc1cc2c(cc1O)CCC1C2CC[C@@]2(C)C1CC[C@@H]2O (stereo not given in full)

>  <log10(TGI)>
0.84

$$$$
>  <Compound>
OCc1cn(Cc2ccc(Cl)cc2)c2ccccc12

>  <log10(TGI)>
1.86

$$$$
>  <Compound>
COC1C(O)CC(OC2CC(OC3CC(O[C@@H]4C(=O)c5c(cc6cc(OC7CC(OC8CC(O)C(O)C(C)O8)C(O)C(C)O7)c(C)c(O)c6c5O)CC4[C@H](OC)C(=O)C(C)=O)OC(C)C3O)OC(C)C2O)OC1C (stereo not given in full)

>  <log10(TGI)>
-1.19

$$$$
>  <Compound>
COc1cc(/C=C2\CCc3ccccc3C2=O)ccc1O

>  <log10(TGI)>
1.68

$$$$
>  <Compound>
CS(=O)(=O)Nc1ccc(Nc2c3ccccc3nc3cc([N+](=O)[O-])ccc23)cc1

>  <log10(TGI)>
0.50

$$$$
>  <Compound>
CCN(CC)CCOc1cccc2nc3c(cc12)Cn1c-3cc2c(c1=O)COC(=O)C2(O)CC (stereo not given)

>  <log10(TGI)>
-0.15

$$$$
>  <Compound>
Cc1nc2ccc(Nc3nc(Cl)nc(Nc4ccc(F)cc4)n3)cc2n1Cc1ccccc1

>  <log10(TGI)>
1.60

$$$$
